# credit: patent US20230167132A1

# test name: Solubility of Compound 1 in various solvents
# Type: physicochemical
# test settings: THF, 50 °C, organic solvent or mixture; read-out: Solubility at 50° C.
measurement kind: solubility

Consider O=C(NCc1ncn2ccc(Cl)c(F)c12)c1cn(Cc2cn3cc(C4CC4)ccc3n2)nn1 [Compound 1] . Its measured solubility is < 10000 µg/mL

---

# test name: Solubility of Compound 1 in various solvents
# Format: physicochemical
# test settings: DMF, 50 °C, organic solvent or mixture; read-out: Solubility at 50° C.
measurement kind: solubility

"O=C(NCc1ncn2ccc(Cl)c(F)c12)c1cn(Cc2cn3cc(C4CC4)ccc3n2)nn1" yielded solubility of < 10000 µg/mL
